Where these numbers come from: PubChem BioAssay (NCI)

system: OVCAR-8 ovarian; test: NCI tumour cell line growth inhibition, 48 h

| Compound | TGI |
| --- | --- |
| NC(=S)Nc1cc(Cl)ccc1Cl | > 100 µM |
| NNC(=S)N/N=C(/C(=O)Nc1cc(Cl)ccc1Cl)C1C(=O)Nc2ccccc2S1=O (stereo not given) | > 100 µM |
| Cn1cc(C2=C(c3cccnc3)C(=O)NC2=O)c2ccccc21 | > 25 µM |
| O=C1c2ccccc2C(=O)c2c1ccc1nc3c(nc21)-c1c2ccccc2cc2cccc-3c12 | > 100 µM |
| COC(=O)[C@]12CSC[C@H]1C[C@H](c1ccccc1OC)N2 | > 100 µM |
| O=C(c1ccc2ccccc2c1)N(Cc1cccnc1)C(=S)N(Cc1cccnc1)C(=O)c1ccc2ccccc2c1 | 66.5 µM |
| O=C(CCl)NC(Cc1ccc(F)cc1)C(=O)O (stereo not given) | > 100 µM |
| Cn1nnnc1N/N=C/c1ccccc1 | > 10 µM |
| Cc1ccc(S(=O)(=O)N/N=c2\c(C)c(C3=NS(=O)(=O)c4cc(S(N)(=O)=O)c(Cl)cc4N3)oc3c(Cl)cc(Cl)cc23)cc1 | > 100 µM |
| N#C/C(=C\c1ccc(O)c(O)c1)C(=O)NC1CCC(CC2CCC(NC(=O)/C(C#N)=C/c3ccc(O)c(O)c3)CC2)CC1 (stereo not given) | 10.4 µM |

====

system: NCI-H226 lung; assay: NCI tumour cell line growth inhibition, 48 h
// values below are reported TGI

| Compound | TGI |
| --- | --- |
| O=C1c2ccccc2-c2c1c(-c1ccc([N+](=O)[O-])cc1)nc1ccc3ccccc3c21 | > 100 µM |
| Nc1nncc2c1ccn2C1OC(CO)C(O)C1O (stereo unspecified) | > 100 µM |
| NNC(=S)N/N=C(/C(=O)Nc1cc(Cl)ccc1Cl)C1C(=O)Nc2ccccc2S1=O (stereo unspecified) | > 100 µM |
| CCCCCCCCOC(CO)CO | > 100 µM |
| Cc1ccc(Nc2n[nH]c(=S)s2)cc1 | > 100 µM |
| O=C1Nc2ccccc2S/C1=C\c1ccccc1C(F)(F)F | > 100 µM |

====

// values below are reported TGI
system: HS 578T breast; experiment: NCI tumour cell line growth inhibition, 48 h
Property Name: TGI

| Molecule | Observed Result |
| --- | --- |
| Cc1ccc2nc(-c3ccc(-n4c(C)nc(=O)c(-c5ccc(F)cc5)c4C)cc3)sc2c1 | 96.9 µM |
| O=C1c2ccccc2C(=O)c2c1ccc1nc3c(nc21)-c1c2ccccc2cc2cccc-3c12 | > 52.4 µM |
| COc1cc(/C=C/C(=O)OCCc2ccccc2)ccc1O | 50 µM |
| CCCCCC(=O)Nc1nc[nH]c1C(N)=O | > 100 µM |
| CC1CCC(O)(C(C)(C(=O)O)c2ccccc2)CC1 (centres undefined) | > 100 µM |
| CCOC(=O)C1=C(C)OC(=O)[C@@]2(OC)C=C(Cl)[C@@]12C | > 100 µM |
| Fc1ccc(OCc2nc3cc(C(F)(F)F)ccc3nc2-c2ccccc2)cc1 | > 100 µM |
| O=c1c2ccccc2n2n1CC(O)C2 (centres undefined) | > 100 µM |
| COc1ccc(OC)c(C23CCCC(C2)N(C)CC3)c1 (centres undefined) | > 100 µM |

====

// values below are reported TGI
system: HS 578T breast; assay: NCI tumour cell line growth inhibition, 48 h
Property Name: TGI

| Molecule | Property Name | Observed Result |
| --- | --- | --- |
| CN(N=O)C(=O)N[C@@H](C=O)[C@@H](O)[C@H](O)[C@H](O)CO | TGI | > 750 µM |
| O=C(O)CCSCc1ccc(I)cc1 | TGI | > 100 µM |
| C=CC[P+](c1ccccc1)(c1ccccc1)c1ccccc1 | TGI | > 100 µM |
| CC(=O)OC[C@@H]1[C@H]2CC[C@]3(C)[C@@H](OC(C)=O)CC[C@H]3[C@@H]2CC[C@H]1C1(C)SCCS1 | TGI | > 25 µM |
| Nc1ccc(N=Nc2ccc(-c3ccc(O)cc3)cc2)c2ccc(S(=O)(=O)O)cc12 | TGI | > 100 µM |

====

test system: COLO 205 colon; test: NCI tumour cell line growth inhibition, 48 h
// values below are reported TGI

| Molecule | Unit Of Measure | Comparison Sign | TGI |
| --- | --- | --- | --- |
| CC(=O)c1cccc(NC(=O)C(=O)C(C2OC(=O)c3ccccc32)[N+](=O)[O-])c1 (centres undefined) | µM | > | 100 |
| CC(=O)OC/C=C/Cn1ncc(=O)[nH]c1=O | µM | > | 100 |
| COC(=O)[C@]12CC[C@@H](C)[C@H](C)[C@@H]1C1=CC[C@@H]3[C@@]4(C)C(C=O)=C[C@@](C)(COC(=O)c5ccco5)[C@@H]4C(=O)C[C@@]3(C)[C@]1(C)CC2 | µM | = | 0.0971 |
| NC(N)=NC(P(=O)(O)O)P(=O)(O)O | µM | > | 100 |
| CCOC(=O)c1c2c(n(Cc3ccccc3)c1C)-c1ccccc1C(=O)C2=O | µM | = | 30.6 |
| C/C1=C/C2=CC(C)C[C@@H]2C(=O)[C@]2(C)C(=O)CC(C)(C)[C@H]2CC1=O (some centres undefined) | µM | > | 50 |
| COc1ccc2nc3cc(Cl)ccc3c(N3CCN(c4ccnc(N5CCOCC5)n4)CC3)c2c1 | µM | > | 100 |
| COC(=O)C1=C(C(=O)OC)C23CC1C1C(C(=O)OC)=C(C(=O)OC)C12C1C=CC3C2C(=O)OC(=O)C21 (centres undefined) | µM | = | 64.9 |
| Oc1c2c(c3c4c1N=CC=4CCN=3)-c1c(Br)cc(Br)cc1CCN2 | µM | = | 2.62 |

====

// values below are reported TGI
tested on: BT-549 breast; experiment: NCI tumour cell line growth inhibition, 48 h

| Compound | Target Desc | Comparison Sign | TGI, µM |
| --- | --- | --- | --- |
| COC(=O)Nc1nc2ccc(S(=O)(=O)n3nnc4ccccc43)cc2[nH]1 | BT-549 breast | = | 48.1 |
| CCOC(=O)C(NCc1ccc2c(c1)OCO2)(NC(=O)c1ccccc1)C(F)(F)F (stereo not drawn) | BT-549 breast | > | 100 |
| O=C(c1ccco1)c1nc2cc(F)ccc2[n+]([O-])c1C(F)(F)F | BT-549 breast | = | 51.6 |
| COc1cc2nccc(Oc3ccc(NC(=O)C4(C(=O)Nc5ccc(F)cc5)CC4)cc3)c2cc1Oc1ccc(N)cn1 | BT-549 breast | > | 100 |
| O=C(O)C1=C(C(=O)O)N(c2ccncc2)C(c2ccco2)=CC1c1ccccc1[N+](=O)[O-] (stereo not drawn) | BT-549 breast | = | 30 |
| CC(=O)O[C@H]1CC[C@@]2(C)C(=CC[C@@H]3[C@@H]2CC[C@]2(C)Nc4c(cnn4S(C)(=O)=O)C[C@@H]32)C1 | BT-549 breast | = | 72.5 |
| Cc1ccc(S(=O)(=O)/N=C(\N)N(C)N=O)cc1 | BT-549 breast | > | 100 |
| O=C(CCCN1CCC2(CC1)NC(=O)c1ccccc1O2)c1ccc(F)cc1 | BT-549 breast | > | 100 |

====

test system: SNB-75 CNS; test: NCI tumour cell line growth inhibition, 48 h

| Molecule | GI50 |
| --- | --- |
| COc1ccc2nc3cc(Cl)ccc3c(N3CCN(c4ccnc(N5CCOCC5)n4)CC3)c2c1 | 10.6 µM |
| Cc1noc(C)c1-c1cc(O)cc(C(O)c2ccccc2)c1 (centres undefined) | 0.423 µM |
| C[C@@H]1CC[C@@H]2[C@@H]1[C@H](OC(=O)/C=C/c1ccccc1)[C@]1(C3CCCCC3)C[C@@H](NC(=O)CO)[C@@]2(C)O1 | 12.6 µM |
| CCOC(=O)/C=C/c1cc2cc(-c3csc4ccccc34)ccc2[nH]1 | 6.14 µM |
| CC1CCN(CCCCCOc2ccc3oc4cc(Cl)ccc4c(=O)c3c2)CC1 | 6.59 µM |
| COC(=O)c1ccc(NC(=O)Nc2ccc3oc(=O)c4ccccc4c3c2)cc1 | 32 µM |
| COc1cccc2c1-c1c(c3ccc([N+](=O)[O-])cc3c(=O)n1CCCCl)C2=O | 11.6 µM |
| CCN1C(=O)NC(=O)C(C)(N2C(=O)c3c(F)c(F)c(F)c(F)c3C2=O)C1=O (centres undefined) | 2.96 µM |
| O=C(CN1CCN(c2ccc(Cl)cc2)CC1)N1CCN(c2nnc(-c3ccc(Cl)cc3)c(-c3ccc(Cl)cc3)n2)CC1 | 15.1 µM |
| COc1ccc(-c2nn(-c3cccc(NC(=O)c4ccc5c(c4)OCCO5)c3)cc2-c2ccncc2)cc1Cl | 0.602 µM |
| O=C(c1ccco1)c1nc2cc(F)ccc2[n+]([O-])c1C(F)(F)F | 24.5 µM |
| CN(C)CCOc1ccc(/C(=C(/CCCl)c2ccccc2)c2ccccc2)cc1 | 1.11 µM |
| CO/N=C(\C)c1cccc(Nc2cc(-c3ccccc3)nc3c(O)cccc23)c1 | 20.5 µM |
| Cc1cnc(/C=N\NC(N)=S)c2cccc(N)c12 | 1.35 µM |
